# run_description: Plasma PK of simvastatin and simvastatin acid with (Treatment A) and without (Treatment B) TH9507, two-way crossover studies
# Type: in vivo
# run_parameters: both sexes, human, plasma, po, 80 mg; read-out: T1/2, Treatment B (converted)
# Method: […] […] N=58 healthy adult (male and female) subjects were enrolled. Dosing occurred in two groups. […] PK/statistics: PK parameters were calculated using standard noncompartmental approaches. […] The final ANOVA models included group, sequence, treatment, and period nested within group as fixed effects and subject nested within group-by-sequence as a random effect. The treatment-by-group term was excluded from the models for the groups combined, to be conservative.
result_type: half-life (h)
Record the value in h, omitting the unit from your answer.

## Input Given CCC(C)(C)C(=O)O[C@H]1C[C@@H](C)C=C2C=C[C@H](C)[C@H](CC[C@@H]3C[C@@H](O)CC(=O)O3)[C@H]21 [Simvastatin, reference compound] , state its recorded half-life.
## Output 8.56
